Hello, the source for this data is patent US4310682A, in case you need it.

Tested on: Aspergillus flavus IFO 8558
METHOD NOTES: MIC, Sabouraud agar medium containing the compound
Format: cell-based
CONDITION CONTEXT: fungus No. 6, 20° C., 14 days
REPORTED PROPERTY: MIC (Minimum Inhibitory Concentration)
Numbers only.

>>> measured("Cc1cc(Br)ccc1NC(=O)c1cc(I)ccc1O [compound 5, 5-iodo-2'-methyl-4'-bromo salicylanilide]")
3.2
>>> measured("Cc1cc(Cl)ccc1NC(=O)c1cc(I)ccc1O")
6.3
>>> measured("Cc1cc(Cl)ccc1NC(=O)c1cc(Br)ccc1O")
50
>>> measured("C=CCCCCCCCCC(=O)O [Contrast No. 3, undecylenic acid, reference compound]")
50
>>> measured("Cc1cc(Br)ccc1NC(=O)c1cc(Cl)ccc1O")
50

Lab note: each molecule below needs its MIC (Minimum Inhibitory Concentration) filled in.
1. COC1=CC(=O)C[C@@H](C)[C@]12Oc1c(Cl)c(OC)cc(OC)c1C2=O [Contrast No. 4, griseo fulvin, reference compound]
2. CCc1cc(Cl)ccc1NC(=O)c1cc(I)ccc1O [compound 6, 5-iodo-2'-ethyl-4'-chloro salicylanilide]

A)
25
3.2
